Source of measurements: patent US8673950B2

# SYSTEM_NAME: mouse TAAR1 (Mus musculus (Mouse), UniProt Q923Y8)
# Sequence (Q923Y8 whole entry): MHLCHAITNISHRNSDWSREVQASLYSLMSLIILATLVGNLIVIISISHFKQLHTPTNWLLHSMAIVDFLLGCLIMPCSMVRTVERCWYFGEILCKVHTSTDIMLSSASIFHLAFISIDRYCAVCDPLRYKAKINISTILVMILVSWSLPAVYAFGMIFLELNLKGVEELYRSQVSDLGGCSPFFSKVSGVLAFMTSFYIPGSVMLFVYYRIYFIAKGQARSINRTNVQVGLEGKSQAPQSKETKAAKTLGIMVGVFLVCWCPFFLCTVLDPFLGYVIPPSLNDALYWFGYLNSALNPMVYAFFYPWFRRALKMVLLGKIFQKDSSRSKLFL
# EXPERIMENT_DESCRIPTION: Radioligand binding assay on mouse TAAR1
# PARTICULARS: mouse TAAR1, membranes of stably transfected HEK-293 cells; first value of cell mouse/rat
Under this convention, class 1 denotes Ki strictly below 0.002 µM and class 0 denotes Ki at or above 0.002 µM.

As a guide, the following entries are already answered.
NC1=N[C@@H](CCc2ccc(Nc3cc(F)ccn3)cc2)CO1 [Example 22]	class 0
NC1=N[C@@H](CCc2ccc(Nc3ccc(Cl)cc3F)cc2)CO1 [Example 7]	class 1
NC1=N[C@@H](CCc2ccc(Nc3ccc(Cl)c(Cl)c3)cc2)CO1 [Example 19]	class 1
NC1=N[C@@H](CCc2ccc(NC(c3ccc(Cl)cn3)C(F)(F)F)cc2)CO1 (some centres unmarked) [Example 68]	class 0
NC1=N[C@@H](CCc2ccc(Nc3ncc(Br)cn3)cc2)CO1 [Example 51]	class 1

Enquiry: Is it true that Ki reported for NC1=N[C@@H](CCc2ccc(Nc3cnc(Cl)nc3)cc2)CO1 [Example 50] is less than 0.002 µM?
Return: class 0

Enquiry: Please let me know if COc1ccc(Nc2ccc(CC[C@H]3COC(N)=N3)cc2)cc1 [Example 9] shows Ki below 0.002 µM.
Return: class 0

Enquiry: Does this compound meet the criterion Ki < 0.002 µM? Cc1cc(Nc2ccc(CC[C@H]3COC(N)=N3)cc2)c2ncccc2c1 [Example 4]
Return: class 0

Enquiry: Criterion: Ki strictly below 0.002 µM. Is it met by N#Cc1ccc(N(c2ccc(CC[C@H]3COC(N)=N3)cc2)c2ccc(C#N)cn2)nc1 [Example 12] ?
Return: class 0

* * *

Listing: Ki of selected compounds
# SYSTEM_NAME: rat TAAR1 (Rattus norvegicus (Rat))
# EXPERIMENT_DESCRIPTION: Radioligand binding assay on rat TAAR1
# PARTICULARS: rat TAAR1, membranes of stably transfected HEK-293 cells; second value of cell mouse/rat

Form field, Ki with rat TAAR1 (Rattus norvegicus (Rat)), item Cc1cncc(Nc2ccc(CC[C@H]3COC(N)=N3)cc2)n1 : 0.0046 µM

So the reported Ki for CC(C)(C)c1cnc(Nc2ccc(CC[C@H]3COC(N)=N3)cc2)nc1 , on rat TAAR1 (Rattus norvegicus (Rat)), turned out to be 0.0004 µM

Sample NC1=N[C@@H](CCc2ccc(Nc3cccc4cccc(Cl)c34)cc2)CO1 , system: rat TAAR1 (Rattus norvegicus (Rat)). Its Ki is 0.0033 µM

* * *

Property: Ki; scope: individual compounds
# SYSTEM_NAME: rat TAAR1 (Rattus norvegicus (Rat), UniProt Q923Y9)
# Sequence (Q923Y9 whole entry): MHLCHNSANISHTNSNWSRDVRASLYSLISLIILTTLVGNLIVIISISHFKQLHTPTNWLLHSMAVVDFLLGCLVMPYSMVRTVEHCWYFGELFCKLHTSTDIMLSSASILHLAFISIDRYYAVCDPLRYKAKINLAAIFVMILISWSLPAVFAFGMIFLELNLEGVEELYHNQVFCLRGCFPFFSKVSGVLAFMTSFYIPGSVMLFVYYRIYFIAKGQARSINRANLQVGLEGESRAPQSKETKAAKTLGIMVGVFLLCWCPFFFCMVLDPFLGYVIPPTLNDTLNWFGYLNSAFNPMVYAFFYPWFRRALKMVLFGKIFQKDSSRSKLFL
# EXPERIMENT_DESCRIPTION: Radioligand binding assay on rat TAAR1
# PARTICULARS: rat TAAR1, membranes of stably transfected HEK-293 cells; second value of cell mouse/rat
Answer with a number only, understood to be in µM.

Consider the worked cases shown below.
NC1=N[C@@H](CCc2ccc(Nc3cnc(Cl)nc3)cc2)CO1	0.0006
NC1=N[C@@H](CCc2ccc(Nc3cccc4cccnc34)cc2)CO1	0.0006
NC1=N[C@@H](CCc2ccc(NC(c3cc(Cl)cc(Cl)c3)C(F)(F)F)cc2)CO1 (stereo partly drawn)	0.0407
N#Cc1ccc(Nc2ccc(CC[C@H]3COC(N)=N3)cc2)nc1	0.0004
Cc1cnc(Nc2ccc(CC[C@H]3COC(N)=N3)cc2)nc1	0.0012

Field Ki (entry C[C@@H]1OC(N)=N[C@H]1CCc1ccc(Nc2ncc(Cl)cn2)cc1 ) reads 0.0006

COc1ccc(Nc2ccc(CC[C@H]3COC(N)=N3)cc2)nc1 has a reported Ki of 0.0083

// NC1=N[C@@H](CCc2ccc(Nc3ncccc3F)cc2)CO1 : Ki value = 0.0005

NC1=N[C@@H](CCc2ccc(Nc3cccc4ccccc34)cc2)CO1 yielded Ki of 0.0001

* * *

# SYSTEM_NAME: UniProtKB Q923Y8
# EXPERIMENT_DESCRIPTION: Radioligand binding assay on mouse TAAR1
# PARTICULARS: mouse TAAR1, membranes of stably transfected HEK-293 cells; first value of cell mouse/rat
Note to self: Ki under 0.008 µM means fulfilled, ties and anything higher get not fulfilled.

See these solved cases before continuing.
NC1=N[C@@H](CCc2ccc(Nc3cc(Cl)ncn3)cc2)CO1	fulfilled
CC(C)c1cnc(Nc2ccc(CC[C@H]3COC(N)=N3)cc2)nc1	fulfilled
Cc1ccnc(Nc2ccc(CC[C@H]3COC(N)=N3)cc2)n1	not fulfilled
CCC(CC)c1cnc(Nc2ccc(CC[C@H]3COC(N)=N3)cc2)nc1	fulfilled
C[C@@H]1OC(N)=N[C@H]1CCc1ccc(Nc2ncc(Cl)cn2)cc1	fulfilled

Enquiry: For NC1=N[C@@H](CCc2ccc(Nc3ncccc3F)cc2)CO1 , is the recorded Ki below the cut-off of 0.008 µM?
Return: not fulfilled

Enquiry: Is Ki strictly under 0.008 µM for the entry C[S+]([O-])c1cnc(Nc2ccc(CC[C@H]3COC(N)=N3)cc2)nc1 (some centres unmarked) ?
Return: not fulfilled

* * *

# SYSTEM_NAME: mouse TAAR1 (Mus musculus (Mouse))
# EXPERIMENT_DESCRIPTION: Radioligand binding assay on mouse TAAR1
# PARTICULARS: mouse TAAR1, membranes of stably transfected HEK-293 cells; first value of cell mouse/rat
Label yes when Ki is strictly below 0.008 µM; at or above that, label no.

Please review the entries below; each comes with its answer.
NC1=N[C@@H](CCc2ccc(Nc3ccc(Cl)cc3)cc2)CO1 [Example 6]	yes
NC1=N[C@@H](CCc2ccc(Nc3ncc(C(F)(F)F)cn3)cc2)CO1 [Example 56]	yes
CCC(=O)c1cnc(Nc2ccc(CC[C@H]3COC(N)=N3)cc2)nc1 [Example 53]	no
NC1=N[C@@H](CCc2ccc(N[C@H](c3ccc(Cl)cc3)C(F)(F)F)cc2)CO1 [Example 65]	no
NC1=N[C@@H](CCc2ccc(Nc3ccc(C(F)(F)F)cn3)cc2)CO1 [Example 11]	yes

Enquiry: Report whether reported Ki is lower than 0.008 µM (strictly) for CC(=O)c1cnc(Nc2ccc(CC[C@H]3COC(N)=N3)cc2)nc1 [Example 47]
Return: no

Enquiry: Consider NC1=N[C@@H](CCc2ccc(NC(c3ccc(Cl)cc3)C(F)(F)F)cc2)CO1 (stereo partly shown) [Example 63] . Does its Ki lie strictly below 0.008 µM?
Return: no

Enquiry: Take the compound NC1=N[C@@H](CCc2ccc(Nc3ncc(OCC(F)(F)F)cn3)cc2)CO1 [Example 73] and say whether its Ki is less than 0.008 µM.
Return: no

Enquiry: Record CCc1cnc(Nc2ccc(CC[C@H]3COC(N)=N3)cc2)nc1 [Example 37] : is its Ki strictly below 0.008 µM?
Return: yes

Enquiry: Please check: Ki for COc1ccc(Nc2ccc(CC[C@H]3COC(N)=N3)cc2)nc1 [Example 30] , strictly under 0.008 µM or not?
Return: no
